Would you kindly list fraction unbound at 4 h, 5 µM for each of these molecules?
test name: Plasma protein binding in Sprague-Dawley rat at 5 uM measured for 4 hrs by equilibrium dialysis method based LC/MS/MS analysis
Type: ADME, cell-free
condition description: read-out: PPB (converted)
Answers are plain numbers.

C[C@@H]1COCCN1c1cc(N2CCOC[C@@H]2C)nc2[nH]c(-c3ccccn3)nc12 0.134

Now consider a different molecule.
Item `C[C@@H]1COCCN1c1cc(N2CCOC[C@@H]2C)nc2[nH]c(-c3cscn3)nc12` has what recorded fraction unbound at 4 h, 5 µM? 0.18

----------
test name: Ratio of drug concentration in brain to plasma in C57BL/6 mouse at 3 mg/kg, po measured at 3 hrs
Format: ADME, organism-based
condition description: read-out: BPR
assay endpoint: Kp at 3 h
One number for each entry.

State the recorded Kp at 3 h for this entry: `C[C@@H]1COCCN1c1cc(N2CCOC[C@@H]2C)nc2[nH]c(-c3cscn3)nc12` 0.45
